Exercise: state measured Population Healthy Nuclei (%) for each of the compounds provided.
- Test system: HEK-293T
- ASSAY TEXT: Multiplex assay against HEK293T
- Type: toxicity, cell-based
- TEST CONTEXT: human, 12 h, 1 µM, compound concentration 1 uM, replicate 1
Your answer should be a plain number; it is taken to be in %.

Need Population Healthy Nuclei (%), item `CCn1c(=O)c(-c2ccc(-c3cncs3)cc2Cl)cc2cnc(Nc3ccc(N4CCN(C)CC4)cc3)nc21`
46

Need Population Healthy Nuclei (%), item `CCCn1c(=O)c2[nH]c(-c3cnn(Cc4cccc(C(F)(F)F)c4)c3)nc2n(CC)c1=O`
15

Need Population Healthy Nuclei (%), item `O=C(Nc1ccc(-n2nc(-c3cccnc3)cc2C(F)(F)F)cn1)c1ccc(-c2ccccc2)c(F)c1`
24

Need Population Healthy Nuclei (%), item `CCOc1cc2ncc(C#N)c(Nc3ccc(OCc4ccccn4)c(Cl)c3)c2cc1NC(=O)/C=C/CN(C)C`
24

Need Population Healthy Nuclei (%), item COc1cc2ncnc(Nc3ccc(F)c(Cl)c3)c2cc1NC(=O)/C=C/CN1CCCCC1 [DACOMITINIB ANHYDROUS]
32

Need Population Healthy Nuclei (%), item `COc1cc(N2CCN(C)CC2)ccc1Nc1ncc2c(n1)N(C)c1ccccc1C(=O)N2C`
45

Need Population Healthy Nuclei (%), item `CCNc1cc(N[C@H]2CC[C@H](O)CC2)nc(Nc2ccc3c(ccn3Cc3ccccc3)c2)n1`
54

Need Population Healthy Nuclei (%), item `O=C1N/C(=N/c2ccccc2F)S/C1=C\c1ccc(C(=O)O)cc1`
38

Need Population Healthy Nuclei (%), item `Cc1ccc2nc(NCCN)c3ncc(C)n3c2c1.O=C(O)C(F)(F)F.O=C(O)C(F)(F)F`
67

Need Population Healthy Nuclei (%), item `C=CCn1c(=O)c2cnc(Nc3ccc(N4CCN(C)CC4)cc3)nc2n1-c1cccc(C(C)(C)O)n1`
36

Need Population Healthy Nuclei (%), item `CCN1CCN(Cc2ccc(Nc3ncc(F)c(-c4cc(F)c5nc(C)n(C(C)C)c5c4)n3)nc2)CC1.CS(=O)(=O)O`
19

Need Population Healthy Nuclei (%), item `COC(=N)c1nc2ccc3ncnc(Nc4ccc(OC)cc4F)c3c2s1`
53

Need Population Healthy Nuclei (%), item `O=C(Cc1ccc(-c2ccc(OCCN3CCOCC3)cc2)cn1)NCc1ccccc1`
21

Need Population Healthy Nuclei (%), item `CCc1cccc(CC)c1NC(=O)c1nn(C)c2c1CCc1cnc(Nc3ccc(C(=O)NC4CCN(C)CC4)cc3OC(F)(F)F)nc1-2`
46

Need Population Healthy Nuclei (%), item `O=C1NC(=O)C(c2cnc3ccccn23)=C1c1cn2c3c(cc(F)cc13)CN(C(=O)N1CCCCC1)CC2`
18

Need Population Healthy Nuclei (%), item `COc1cccc2cc(-c3nc([C@H]4CC[C@H](C(=O)O)CC4)n4ncnc(N)c34)[nH]c12`
55

Need Population Healthy Nuclei (%), item `CCCS(=O)(=O)c1nc(NC2CC2)cc(-c2ccc3c(ccn3C3CC(C)(C)NC(C)(C)C3)c2)n1`
37

Need Population Healthy Nuclei (%), item `O=C(Nc1ccc(-c2ccnc(Nc3ccc(N4CCOCC4)cc3)n2)cc1)[C@@H]1CCCN1`
34

Need Population Healthy Nuclei (%), item `COc1ccc(-c2ccc3c(N4CCOCC4)nc(N4C[C@@H](C)O[C@@H](C)C4)nc3n2)cc1CO`
63

Need Population Healthy Nuclei (%), item `CCCS(=O)(=O)Nc1ccc(F)c(C(=O)c2c[nH]c3ncc(Cl)cc23)c1F`
62

Need Population Healthy Nuclei (%), item CN1C2CCC1CC(OC(c1ccc(F)cc1)c1ccc(F)cc1)C2.Cl (stereo not drawn)
27

Need Population Healthy Nuclei (%), item `CNc1cc(Oc2cc(C(=O)Nc3cc(N4CCN(C)CC4)cc(C(F)(F)F)c3)ccc2C)ncn1`
13

Need Population Healthy Nuclei (%), item `CCN1CCN(c2ccc(Nc3cc(N(C)C(=O)Nc4c(Cl)c(OC)cc(OC)c4Cl)ncn3)cc2)CC1`
37

Need Population Healthy Nuclei (%), item `C=C1/C(=C\C=C2/CCC[C@]3(C)[C@@H]([C@H](C)/C=C/[C@H](C)C(C)C)CC[C@@H]23)C[C@@H](O)C[C@@H]1O`
26

Need Population Healthy Nuclei (%), item `O=C(Nc1cccnn1)N1CCC(=Cc2cccc(Oc3ccc(C(F)(F)F)cn3)c2)CC1`
46

Need Population Healthy Nuclei (%), item `Cn1nc(C(F)(F)F)cc1-c1cnc(N2CCc3cc(S(=O)(=O)Nc4c(F)cc(Cl)cc4F)cc(N4CCCC4=O)c32)nc1`
71

Need Population Healthy Nuclei (%), item `CCc1cccc(CC)c1NC(=O)c1nn(C)c2c1CCc1cnc(Nc3ccc(N4CCN(C)CC4)cc3OC)nc1-2`
18

Need Population Healthy Nuclei (%), item `Cl.O=C(c1ccc(Nc2nccc(-c3cc4ccccc4s3)n2)cc1)N1CCC(N2CCCC2)CC1`
59

Data origin: ChEMBL document CHEMBL4689842
